Each recorded value in this set is attributed to PubChem BioAssay (NCI).

- Test system: OVCAR-5 ovarian
- assay method text: NCI tumour cell line growth inhibition, 48 h
measured property: GI50

>>> val("COC(=O)c1ccc(=O)c2nc3/c(=C/O)c(O)cc(=O)c3[nH]c12")
"3.38 µM"
>>> val("COc1cc2c3c(n(CCCN)c(=O)c2cc1OC)-c1ccc(F)cc1C3=O")
"10.4 µM"
>>> val("O=C(Oc1ccc([N+](=O)[O-])cc1)N1CCN(Cc2cccc(Oc3ccccc3)c2)CC1")
"> 100 µM"
>>> val("Cc1ccc(N=C2CSc3nnc(-c4csc5c4CCCC5)n3N2)cc1")
"0.932 µM"
>>> val("O=C1c2ccccc2S(=O)(=O)N1CSC(=S)N1CCCC1")
"> 100 µM"

---

- Tested on: T-47D breast
- assay method text: NCI tumour cell line growth inhibition, 48 h; in the data active = GI50 below about 0.43 µM; inactive = the rest
Possible outcomes: class 1 = active, class 0 = inactive

>>> assigned_label("COC(=O)c1c2c(c(C)[n+]([O-])c1C)C(=O)C=C(NCc1cccc(OC)c1)C2=O")
"class 1"
>>> assigned_label("Cc1cc2c(c3oc(C(O)(CO)C4CO4)cc(=O)c13)C(=O)c1c(O)cccc1C2=O (stereo not given)")
"class 1"
>>> assigned_label("C=C1C(=O)O[C@H]2[C@H]1CC/C(COC(=O)C(=O)c1c[nH]c3ccc(OC)cc13)=C\\CC[C@@]1(C)O[C@@H]21")
"class 0"
>>> assigned_label("COc1cc(/C=C/C(=O)c2cc(F)c(Cl)cc2Cl)cc(OC)c1OC")
"class 0"
>>> assigned_label("Cc1cc(O)c2c(c1)C(=O)c1cc(O)cc(O)c1C2=O")
"class 0"
>>> assigned_label("Cc1ccc(S(=O)(=O)Oc2ccc3c4c(c(=O)oc3c2)CCCCC4)cc1")
"class 0"
>>> assigned_label("COc1cc(NN=C(c2ccc(O)cc2)c2ccc(O)cc2)c([N+](=O)[O-])cc1[N+](=O)[O-]")
"class 0"
>>> assigned_label("O=C1c2ccccc2S(=O)(=O)N1CSC(=S)N1CCCC1")
"class 0"
>>> assigned_label("CC[N+](CC)=c1ccc2nc3c(cc(NCc4ccccc4)c4ccccc43)oc-2c1")
"class 1"
>>> assigned_label("O=C1/C(=C/c2ccccc2)SC(=Nc2ccccc2)N1Nc1ccccc1")
"class 0"

---

- Test system: CCRF-CEM leukemia
- assay method text: NCI tumour cell line growth inhibition, 48 h; in the data active means GI50 below about 0.43 µM; inactive means the rest
Possible outcomes: True for active, False for inactive

>>> assigned_label("N#C/C(=C/C=C(\\Cl)c1ccc(Cl)cc1)C(N)=O")
"False"
>>> assigned_label("O=C([O-])c1ccc2c(c1)-c1nc-2nc2[n-]c(nc3nc(nc4[n-]c(n1)c1ccc(C(=O)[O-])cc41)-c1cc(C(=O)[O-])ccc1-3)c1ccc(C(=O)[O-])cc21.[Fe+2]")
"False"
>>> assigned_label("O=S(=O)(NC(=S)Nc1ccccc1)c1ccc(N2N=C3c4ccccc4CC3C2c2cccs2)cc1 (centres undefined)")
"False"
>>> assigned_label("COc1c2ccccc2c(O)c2c(=O)c(C(=O)O)cn(C)c12")
"False"
>>> assigned_label("CO[C@H]1[C@H](O)[C@H](O[C@H]2CC[C@@]3(C)[C@H](CC[C@@H]4[C@@H]3CC[C@]3(C)[C@@H](C5=CC(=O)OC5)CC[C@]43O)C2)O[C@@H](C)[C@@H]1O")
"True"
>>> assigned_label("COc1cc2c3c(n(CCCN4CCN(C)CC4)c(=O)c2cc1OC)-c1cc2c(cc1C3=O)OCO2")
"False"
>>> assigned_label("CCCCCCCCOc1ccc(/C=N/Nc2cc(C)nc3ccc(Cl)cc23)cc1")
"False"
>>> assigned_label("Cc1ccc(S(=O)(=O)Oc2ccc3c4c(c(=O)oc3c2)CCCCC4)cc1")
"False"
>>> assigned_label("CCC(C(=O)[O-])C(=O)[O-].CCC(C(=O)[O-])C(=O)[O-].N.N.NCCCCCN.[Pt+4].[Pt+4]")
"False"
